System: blackgrass (Alopecurus myosuroides)
experimental.protocol: Test A postemergence
Type: in vivo
assay.conditions: Alopecurus myosuroides, post-emergence, 240 h, 125 g ai/ha, Postemergence, visual rating about 10 d after treatment; read-out: Blackgrass plant response rating (0 to 100 scale)
Rule: pest or weed control at 125 g/ha under 40% gives 0.0, otherwise 1.0.

Illustrative cases are given below, each with its answer.
CC(C)=Cc1cc([C@H]2CN(C)C(=O)[C@@H]2C(=O)Nc2cccc(F)c2F)ccc1C(F)(F)F [Compound 1337]    0.0
CN1C[C@H](c2ccc(C(F)(F)F)nc2)[C@@H](C(=O)Nc2cccc(F)c2F)C1=O [Compound 1372]    1.0
CN1CC[C@H](c2cccc(C(F)(F)F)c2)[C@@H](C(=O)Nc2ccccc2F)C1=O [Compound 1331]    0.0
CN1C[C@H](c2cccc(C(F)(F)F)c2)[C@@H](C(=O)Nc2ccccc2-n2cncn2)C1=O [Compound 1289]    0.0
COc1c([C@H]2CN(C)C(=O)[C@@H]2C(=O)Nc2ccccc2F)cccc1C(F)(F)F [Compound 1338]    0.0

In the following, a different compound is considered.
Is reported pest or weed control at 125 g/ha greater than or equal to 40% here: CN1C[C@H](c2ccc(C(F)(F)F)cc2)[C@@H](C(=O)Nc2ccc(F)nc2F)C1=O [Compound 1347]
1.0

----------
Tested on: blackgrass (Alopecurus myosuroides)
experimental.protocol: Test A postemergence
Format: in vivo
assay.conditions: 500 g ai/ha, postemergence; 0 to 100 scale, 0 no effect, 100 complete control
value.type: Plant response rating, Blackgrass
One number for each entry.

# example entries with known answers
O=C1NCC(c2ccc(F)c(F)c2)C1C(=O)Nc1ccc(Cl)cc1F (stereo not drawn)    20
COc1cccc(NC(=O)C2C(=O)NCC2c2cccc(OC(F)F)c2)c1F (stereo not drawn)    0
Cc1ccc(F)c(NC(=O)C2C(=O)NCC2c2ccc(F)c(F)c2)c1 (stereo not drawn)    0
CN1CC(c2ccc(Cl)cc2)C(C(=O)Nc2ccccc2S(C)(=O)=O)C1=O (stereo not drawn)    50
O=C1NCC(c2cccc(C#Cc3ccccc3)c2)C1C(=O)Nc1cccc(F)c1F (stereo not drawn)    0
Cc1cc(C2CNC(=O)C2C(=O)Nc2cccc(F)c2F)ccc1F (stereo not drawn)    60
C=C(C)CN1CC(c2cccc(C(F)(F)F)c2)C(C(=O)Nc2cccc(F)c2F)C1=O (stereo not drawn)    40
CS(=O)(=O)c1ccccc1NC(=O)C1C(=O)NCC1c1ccc(Br)cc1 (stereo not drawn)    60

Let's switch to this compound now.
Endpoint output: Plant response rating, Blackgrass of Cc1cc(C2CNC(=O)C2C(=O)Nc2ccc(F)c(F)c2F)ccc1F (stereo not drawn) . Value?
50

----------
What Plant response rating, Wheat was measured for each of the following?
System: wheat (Triticum aestivum)
experimental.protocol: Test A postemergence
Format: in vivo
assay.conditions: Postemergence, 500 g ai/ha; 0 to 100 scale where 0 is no effect and 100 is complete control
One number for each entry.

O=C1NCC(c2cc(F)ccc2F)C1C(=O)Nc1ccc(F)cc1F (racemic)    0
COc1c(F)ccc(NC(=O)C2C(=O)NCC2c2cc(F)cc(F)c2)c1F (racemic)    80
O=C1NCC(c2cccc(F)c2F)C1C(=O)Nc1ccccc1F (centres unmarked)    0
O=C1NCC(c2cc(C(F)(F)F)cc(C(F)(F)F)c2)C1C(=O)Nc1ccc(F)cc1F (centres unmarked)    50
CN1CC(c2ccc(C(F)(F)F)cc2F)C(C(=O)Nc2cccc(F)c2F)C1=O (centres unmarked)    60

Report Plant response rating, Wheat for every entry below.
1. CC(C)c1ccc(C2CNC(=O)C2C(=O)Nc2cccc(F)c2F)cc1 (centres unmarked)
2. Cc1ccc(C2CNC(=O)C2C(=O)Nc2ccc(F)cc2F)c(F)c1 (racemic)
3. CC(C)c1ccc(C2CNC(=O)C2C(=O)Nc2ccccc2F)cc1 (centres unmarked)
4. CN1CC(c2ccc(Br)cc2)C(C(=O)Nc2ccc(F)cc2F)C1=O (centres unmarked)
5. O=C1NCC(c2cc(F)cc(C(F)(F)F)c2)C1C(=O)Nc1cccc(F)c1F (centres unmarked)
6. C=C(C)CN1CC(c2cccc(C(F)(F)F)c2)C(C(=O)Nc2cccc(F)c2F)C1=O (centres unmarked)

1. 0
2. 20
3. 0
4. 40
5. 60
6. 40

The measurements presented in this section are drawn from patent US12077503B2.
